We begin with a simple list: items and their reported RLU.
# TARGET OF ASSAY: T1, apical domain of human CD71 (human, UniProt P02786 189-383, limits assumed)
# T1 construct: domain: apical domain; Screen 4 panned on human apical domains, the ELISA text says only 'apical domain'
# T1 sequence (P02786 189-383 limits assumed): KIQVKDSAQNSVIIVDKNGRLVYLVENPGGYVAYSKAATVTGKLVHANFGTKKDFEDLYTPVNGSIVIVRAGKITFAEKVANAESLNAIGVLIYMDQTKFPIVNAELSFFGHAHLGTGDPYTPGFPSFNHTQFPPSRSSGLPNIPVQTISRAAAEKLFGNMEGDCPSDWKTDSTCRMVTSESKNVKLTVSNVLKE
# TEST: primary ELISA; note: test concentration or dose not given here
VALUE KIND: RLU (RLU)

BINDER	VALUE KIND	MEASURED
CD71-binding FN3 domain of SEQ ID NO: 488 (designed binder) MLPAPKNLVVSRVTEDSARLSWTAPDAAFDSFIIQYGEYLRWGEAIVLTVPGSERSYDLTGLKPGTEYQVEIYGVKGGPLSKPLSAIFTT	RLU	6.14e+06
CD71-binding FN3 domain of SEQ ID NO: 512 (designed binder) MLPAPKNLVVSRVTEDSARLSWTAPDAAFDSFFIGYLEPQPPGEAIDLWVPGSERSYDLTGLKPGTEYNVTIQGVKGGFPSDPLDAHFTT	RLU	3.87e+06
CD71-binding FN3 domain of SEQ ID NO: 514 (designed binder) MLPAPKNLVVSRVTEDSARLSWTAPDAAFDSFFIGYLEPQPPGEAIHLFVPGSERSYDLTGLKPGTEYNVTIQGVKGGFPSEPLIANFTT	RLU	5.94e+06
CD71-binding FN3 domain of SEQ ID NO: 469 (designed binder) MLPAPKNLVVSRVTEDSARLSWTAPDAAFDSFFIGYLEPQPPGEAIHLYVPGSERSYDLTGLKPGTEYNVTIQGVKGGFPSLPLVATFTT	RLU	5.56e+06

Value source: patent US20260151494A1
